B1: Zinc finger MYM-type protein 2, residues 463 to 506; numbered along this chain, Q9UBW7 (parent)
chain: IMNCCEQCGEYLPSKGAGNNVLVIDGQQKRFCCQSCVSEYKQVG

Variants of: B1
Test: abundance fitness (aPCA) (normalised: wild type 0, dead -1); higher = more abundant; growth selection in yeast, the domain comes from the species named
Conditions: Homo sapiens
readout-type: abundance fitness

Quick batch: abundance fitness for everything below.
1. P13L
2. K29P
3. V23D

Solution:
1. -0.438
2. -0.499
3. -0.017

Quick batch: abundance fitness for everything below.
1. I1S
2. A17Q
3. V23S
4. C33P
5. V43Q

Solution:
[-0.172, -0.069, 0.025, -0.342, -0.055]

Quick batch: abundance fitness for everything below.
1. E10N
2. N3V
3. K29S

Solution:
1: -0.389; 2: -0.366; 3: -0.329

Quick batch: abundance fitness for everything below.
1. Y11E
2. S14P
3. N3H
4. G18A
5. C32R
6. R30H

Solution:
1: 0.296; 2: 0.33; 3: -0.154; 4: 0.015; 5: -0.298; 6: -0.464

Quick batch: abundance fitness for everything below.
1. L22A
2. C36N

Solution:
-0.072
-0.273

Quick batch: abundance fitness for everything below.
1. C5H
2. G9P
3. Q27G
4. R30D
5. Q42E
6. C32S
7. L12R

Solution:
1: -0.641; 2: -0.68; 3: -0.039; 4: 0.165; 5: -0.102; 6: -0.398; 7: -0.498

Quick batch: abundance fitness for everything below.
1. V23T
2. V23F
3. G18P
4. Q7M
5. S38I

Solution:
1. 0.15
2. 0.23
3. 0.007
4. -0.152
5. -0.106

Quick batch: abundance fitness for everything below.
1. C32W
2. Y40K
3. P13R
4. N3I
5. I24W
6. V21G
7. C5W
8. A17K

Solution:
1: -0.559; 2: -0.057; 3: -0.515; 4: -0.237; 5: -0.05; 6: -0.129; 7: -1.5; 8: -0.521

Reference for the values: the Human Domainome abundance scans (Beltran et al. 2025)
